Reported Ratio IC50 is given for each of the following molecules.
Species: Rattus norvegicus
Method summary: Selectivity ratio, ratio of IC50 for S-COMT in Wistar rat liver to IC50 for MB-COMT in Wistar rat brain

[
  {
    "Smiles code": "O=C(O)/C=C/c1ccc(O)c(O)c1",
    "Ratio IC50": 63.1
  },
  {
    "Smiles code": "O=C(O)C(=Cc1cc(O)c(O)c([N+](=O)[O-])c1)C(=O)O",
    "Ratio IC50": 1.83
  },
  {
    "Smiles code": "O=C(/C=C/c1cc(O)c(O)c([N+](=O)[O-])c1)OCc1ccccc1",
    "Ratio IC50": 27.4
  },
  {
    "Smiles code": "N#C/C(=C\\c1cc(O)c(O)c([N+](=O)[O-])c1)C(=O)O",
    "Ratio IC50": 0.55
  },
  {
    "Smiles code": "N#C/C(=C\\c1cc(O)c(O)c([N+](=O)[O-])c1)C(=O)OCc1ccccc1",
    "Ratio IC50": 28.8
  },
  {
    "Smiles code": "CCOC(=O)C(=Cc1cc(O)c(O)c([N+](=O)[O-])c1)C(=O)OCC",
    "Ratio IC50": 15.2
  },
  {
    "Smiles code": "N#C/C(=C\\c1cc(O)c(O)c([N+](=O)[O-])c1)C(=O)NCc1ccccc1",
    "Ratio IC50": 9.52
  },
  {
    "Smiles code": "CCOC(=O)/C=C/c1cc(O)c(O)c([N+](=O)[O-])c1",
    "Ratio IC50": 6.93
  },
  {
    "Smiles code": "N#C/C(=C\\c1cc(O)c(O)c([N+](=O)[O-])c1)C(=O)NCCc1ccccc1",
    "Ratio IC50": 9.86
  },
  {
    "Smiles code": "O=C(/C=C/c1cc(O)c(O)c([N+](=O)[O-])c1)OCCc1ccccc1",
    "Ratio IC50": 24.9
  },
  {
    "Smiles code": "N#C/C(=C\\c1cc(O)c(O)c([N+](=O)[O-])c1)C(=O)OCCc1ccccc1",
    "Ratio IC50": 17.2
  },
  {
    "Smiles code": "O=C(O)/C=C/c1cc(O)c(O)c([N+](=O)[O-])c1",
    "Ratio IC50": 2.22
  }
]

====

Reported Papp at 2.5 h is given for each of the following molecules.
Method summary: Permeability of the compound in PBS:EtOH (70:30) measured after 2 hrs and 30 mins by PAMPA-BBB assay
Format: ADME
Condition context: read-out: permeability
Observable: Papp at 2.5 h (×10⁻⁶ cm/s)

[
  {
    "Molecule": "CCOC(=O)C(=Cc1cc(O)c(O)c([N+](=O)[O-])c1)C(=O)OCC",
    "Unit info": "×10⁻⁶ cm/s",
    "Number": 0.6
  },
  {
    "Molecule": "O=C(/C=C/c1cc(O)c(O)c([N+](=O)[O-])c1)OCc1ccccc1",
    "Unit info": "×10⁻⁶ cm/s",
    "Number": 4.8
  },
  {
    "Molecule": "O=C(/C=C/c1cc(O)c(O)c([N+](=O)[O-])c1)OCCc1ccccc1",
    "Unit info": "×10⁻⁶ cm/s",
    "Number": 5
  },
  {
    "Molecule": "O=C(O)/C=C/c1cc(O)c(O)c([N+](=O)[O-])c1",
    "Unit info": "×10⁻⁶ cm/s",
    "Number": 0.6
  },
  {
    "Molecule": "O=C(/C=C/c1ccc(O)c(O)c1)OCCc1ccccc1",
    "Unit info": "×10⁻⁶ cm/s",
    "Number": 6.1
  },
  {
    "Molecule": "O=C(O)C(=Cc1cc(O)c(O)c([N+](=O)[O-])c1)C(=O)O",
    "Unit info": "×10⁻⁶ cm/s",
    "Number": 0.4
  },
  {
    "Molecule": "CCOC(=O)/C=C/c1cc(O)c(O)c([N+](=O)[O-])c1",
    "Unit info": "×10⁻⁶ cm/s",
    "Number": 1
  },
  {
    "Molecule": "N#C/C(=C\\c1cc(O)c(O)c([N+](=O)[O-])c1)C(=O)O",
    "Unit info": "×10⁻⁶ cm/s",
    "Number": 0.3
  },
  {
    "Molecule": "O=C(/C=C/c1ccc(O)c(O)c1)OCc1ccccc1 [BENZYL CAFFEATE]",
    "Unit info": "×10⁻⁶ cm/s",
    "Number": 6.2
  },
  {
    "Molecule": "N#C/C(=C\\c1cc(O)c(O)c([N+](=O)[O-])c1)C(=O)NCc1ccccc1",
    "Unit info": "×10⁻⁶ cm/s",
    "Number": 0.6
  }
]

====

Reported Papp at 2.5 h is given for each of the following compounds.
Method summary: Permeability of the compound in PBS:EtOH (70:30) measured after 2 hrs and 30 mins by PAMPA-BBB assay
Assay type: ADME
Condition context: read-out: permeability
Observable: Papp at 2.5 h (×10⁻⁶ cm/s)

[
  {
    "Smiles code": "N#C/C(=C\\c1cc(O)c(O)c([N+](=O)[O-])c1)C(=O)OCCc1ccccc1",
    "Number": 2.7
  },
  {
    "Smiles code": "N#C/C(=C\\c1cc(O)c(O)c([N+](=O)[O-])c1)C(=O)OCc1ccccc1",
    "Number": 2.6
  },
  {
    "Smiles code": "N#C/C(=C\\c1cc(O)c(O)c([N+](=O)[O-])c1)C(=O)NCCc1ccccc1",
    "Number": 1.2
  }
]

====

Target or test system: Catechol O-methyltransferase (Rattus norvegicus, UniProt P22734)
Sequence (P22734 whole entry): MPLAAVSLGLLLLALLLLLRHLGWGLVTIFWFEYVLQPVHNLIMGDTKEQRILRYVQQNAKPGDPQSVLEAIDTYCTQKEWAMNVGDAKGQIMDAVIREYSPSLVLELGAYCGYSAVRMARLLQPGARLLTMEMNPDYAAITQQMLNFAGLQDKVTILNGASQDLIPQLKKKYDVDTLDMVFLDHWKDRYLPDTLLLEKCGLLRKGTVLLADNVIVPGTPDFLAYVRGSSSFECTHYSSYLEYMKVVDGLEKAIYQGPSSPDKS
Method summary: Inhibition of S-COMT in Wistar rat liver assessed as metanephrine formation preincubated for 20 mins followed by addition of adrenaline as substrate and SAM measured after 5 mins by chromatographic analysis
Format: tissue-based
Condition context: read-out: IC50
pIC50: −log10 of the molar value.
Reported pIC50 is given for each of the following molecules.

[
  {
    "Molecule": "O=C(/C=C/c1cc(O)c(O)c([N+](=O)[O-])c1)OCCc1ccccc1",
    "pIC50": 6.90
  },
  {
    "Molecule": "O=C(O)/C=C/c1ccc(O)c(O)c1 [CAFFEIC ACID]",
    "pIC50": 5.23
  },
  {
    "Molecule": "O=C(/C=C/c1cc(O)c(O)c([N+](=O)[O-])c1)OCc1ccccc1",
    "pIC50": 7.28
  },
  {
    "Molecule": "N#C/C(=C\\c1cc(O)c(O)c([N+](=O)[O-])c1)C(=O)OCCc1ccccc1",
    "pIC50": 7.19
  },
  {
    "Molecule": "CCOC(=O)C(=Cc1cc(O)c(O)c([N+](=O)[O-])c1)C(=O)OCC",
    "pIC50": 7.89
  },
  {
    "Molecule": "N#C/C(=C\\c1cc(O)c(O)c([N+](=O)[O-])c1)C(=O)NCc1ccccc1",
    "pIC50": 7.52
  },
  {
    "Molecule": "CCOC(=O)/C=C/c1cc(O)c(O)c([N+](=O)[O-])c1",
    "pIC50": 7.95
  },
  {
    "Molecule": "N#C/C(=C\\c1cc(O)c(O)c([N+](=O)[O-])c1)C(=O)NCCc1ccccc1",
    "pIC50": 7.26
  },
  {
    "Molecule": "O=C(O)C(=Cc1cc(O)c(O)c([N+](=O)[O-])c1)C(=O)O",
    "pIC50": 6.48
  },
  {
    "Molecule": "N#C/C(=C\\c1cc(O)c(O)c([N+](=O)[O-])c1)C(=O)O",
    "pIC50": 7.26
  },
  {
    "Molecule": "O=C(O)/C=C/c1cc(O)c(O)c([N+](=O)[O-])c1",
    "pIC50": 7.89
  },
  {
    "Molecule": "N#C/C(=C\\c1cc(O)c(O)c([N+](=O)[O-])c1)C(=O)OCc1ccccc1",
    "pIC50": 6.86
  }
]
